Would you kindly list inhibition at 1 µM for each of these molecules?
target: Recombinant human mPGES-1 (Homo sapiens); construct: made in house; host or cells: CHO cells (crude microsomal fractions); assay: In-vitro screening of mPGES-1 inhibitors (inhibition of PGE2 formation from PGH2, HTRF detection); type: biochemical; settings: 1 μM test compound; mPGES-1 enzyme, crude microsomal fractions; read-out: Percentage inhibition at 1 μM
Please state the figure in %; there is no need to write the unit.

(Q) Query (molecule): COc1cc(-n2nc(-c3c(C)cccc3Cl)[nH]c2=O)ccc1C(=O)Nc1cccc(C(F)F)c1 [Example-54] ; field requested: inhibition at 1 µM
(A) 89.4

(Q) Query (molecule): O=C(NCc1ccc(Cl)c(-n2nc(-c3ccc(C#Cc4cccc(Cl)c4F)cc3F)[nH]c2=O)c1)C1CC1 [Example-81] ; field requested: inhibition at 1 µM
(A) 99.8

(Q) Query (molecule): O=C(NCc1ccc(Cl)c(-c2nn(-c3ccc(C(F)(F)F)cc3)c(=O)[nH]2)c1)[C@H]1CCCO1 [Example-101] ; field requested: inhibition at 1 µM
(A) 95

(Q) Query (molecule): COc1cc(-n2nc(-c3c(Cl)cccc3Cl)[nH]c2=O)ccc1C(=O)Nc1ccc(F)c(C(F)(F)F)c1 [Example-43] ; field requested: inhibition at 1 µM
(A) 98.6

(Q) Query (molecule): CC(C)(C)C(=O)NCc1cc(-c2nn(-c3ccc(C(F)(F)F)nc3)c(=O)[nH]2)c(Cl)cc1F [Example-129] ; field requested: inhibition at 1 µM
(A) 93.5

(Q) Query (molecule): CC(C)(CO)C(=O)NCc1ccc(Cl)c(-n2nc(-c3ccc(C#CC4CC4)cc3)[nH]c2=O)c1 [Example-191] ; field requested: inhibition at 1 µM
(A) 93.5

(Q) Query (molecule): O=c1[nH]c(-c2c(F)cccc2Cl)nn1-c1ccc(C#Cc2ccncc2Cl)cc1 [Example-14] ; field requested: inhibition at 1 µM
(A) 96

(Q) Query (molecule): Cn1ccnc1C(=O)NCc1ccc(Cl)c(-c2nn(-c3ccc(C(F)(F)F)cc3)c(=O)[nH]2)c1 [Example-110] ; field requested: inhibition at 1 µM
(A) 47.2

(Q) Query (molecule): COc1cc(-c2nn(-c3c(Cl)cccc3Cl)c(=O)[nH]2)ccc1C#Cc1cc(Cl)ccc1Cl [Example-171] ; field requested: inhibition at 1 µM
(A) 95.2

(Q) Query (molecule): Cc1ccc(CNC(=O)C(F)(F)F)c(C)c1-c1nn(-c2ccc(C(F)(F)F)cc2)c(=O)[nH]1 [Example-106] ; field requested: inhibition at 1 µM
(A) 92

(Q) Query (molecule): Cc1cc(C)n(Cc2ccc(-c3nn(-c4cc(CNC(=O)C(C)(C)C)ccc4Cl)c(=O)[nH]3)cc2)n1 [Example-172] ; field requested: inhibition at 1 µM
(A) 91.9

(Q) Query (molecule): O=c1[nH]c(-c2c(F)cccc2Cl)nn1-c1ccc(-c2nc(-c3ccc(F)cc3)no2)cc1 [Example-30] ; field requested: inhibition at 1 µM
(A) 89.6

(Q) Query (molecule): COc1cc(-n2nc(-c3c(Cl)cccc3Cl)[nH]c2=O)ccc1C(=O)Nc1cc(C(F)(F)F)ccc1F [Example-44] ; field requested: inhibition at 1 µM
(A) 97.4

(Q) Query (molecule): O=c1[nH]c(-c2c(F)cccc2Cl)nn1-c1ccc(-c2cccc(OC(F)(F)F)c2)cc1 [Example-8] ; field requested: inhibition at 1 µM
(A) 84.9

(Q) Query (molecule): CC(C)C(=O)NCc1ccc(Cl)c(-n2nc(-c3ccc(C#CC(C)(C)C)c(F)c3)[nH]c2=O)c1 [Example-149] ; field requested: inhibition at 1 µM
(A) 98.3

====

Target: Recombinant human mPGES-1 (Homo sapiens, UniProt O14684)
Construct: made in house; host or cells: CHO cells (crude microsomal fractions)
Sequence (O14684 whole entry): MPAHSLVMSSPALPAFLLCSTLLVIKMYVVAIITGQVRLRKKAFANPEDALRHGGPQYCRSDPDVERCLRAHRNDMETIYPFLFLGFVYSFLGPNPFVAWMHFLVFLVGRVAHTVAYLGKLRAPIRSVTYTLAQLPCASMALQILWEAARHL
Test: In-vitro screening of mPGES-1 inhibitors (inhibition of PGE2 formation from PGH2, HTRF detection)
Assay type: biochemical
Conditions: 10 μM test compound; mPGES-1 enzyme, crude microsomal fractions; read-out: Percentage inhibition at 10 μM
Source text: In-Vitro Protocol for Screening of mPGES-1 Inhibitors: mPGES-1 (Microsomal prostaglandin E synthase-1) is a microsomal enzyme that converts endoperoxide substrate PGH2 (prostaglandin H2) to product PGE2 (prostaglandin E2) by isomerization in the presence of reduced glutathione (GSH). mPGES-1 inhibitors were screened by assessing their ability to inhibit formation of PGE2 from PGH2 in the presence of mPGES-1 using an anti-PGE2 antibody based detection method. […]
REPORTED_METRIC: inhibition at 10 µM (%)
Please state the figure in %; there is no need to write the unit.

(Q) Query (compound): `CC(C)(C)C(=O)NCc1ccc(Cl)c(-n2nc(-c3ccc(C(F)(F)F)c(F)c3)[nH]c2=O)c1` ; field requested: inhibition at 10 µM
(A) 99.7

(Q) Query (compound): `CC(C)(C)C(=O)NCc1ccc(Cl)c(-c2nn(-c3ccc(F)cc3F)c(=O)[nH]2)c1F` ; field requested: inhibition at 10 µM
(A) 69.3

(Q) Query (compound): `O=C(Nc1cc(C(F)(F)F)ccc1F)c1ccc(-n2nc(-c3c(F)cccc3Cl)[nH]c2=O)cc1` ; field requested: inhibition at 10 µM
(A) 92.3

(Q) Query (compound): `CC(C)(C)C(=O)NCc1ccc(Cl)c(-c2nn(-c3ccc(Cl)c(C(F)(F)F)c3)c(=O)[nH]2)c1F` ; field requested: inhibition at 10 µM
(A) 100

(Q) Query (compound): `COc1cc(-c2nn(-c3c(Cl)cccc3Cl)c(=O)[nH]2)ccc1C#Cc1cccc(Cl)c1F` ; field requested: inhibition at 10 µM
(A) 98.7

(Q) Query (compound): `CC(C)(C)C(=O)NCc1ccc(Cl)c(-n2nc(-c3ccc(C#CC4CC4)cc3F)[nH]c2=O)c1` ; field requested: inhibition at 10 µM
(A) 98.9

(Q) Query (compound): `Cc1ccc(-n2nc(-c3cc(CNC(=O)C(C)(C)C)ccc3Cl)[nH]c2=O)cc1Cl` ; field requested: inhibition at 10 µM
(A) 98.1

(Q) Query (compound): `COc1cc(-n2nc(-c3c(Cl)cccc3Cl)[nH]c2=O)ccc1C(=O)Nc1cc(C(F)(F)F)ccc1F` ; field requested: inhibition at 10 µM
(A) 99

(Q) Query (compound): `CC(C)(C)C(=O)NCc1ccc(Cl)c(-c2nn(-c3ccc(C#N)cc3)c(=O)[nH]2)c1F` ; field requested: inhibition at 10 µM
(A) 99.1

(Q) Query (compound): `COc1cc(-n2nc(-c3c(Cl)cccc3C#N)[nH]c2=O)ccc1C(=O)Nc1cccc(C(F)(F)F)c1` ; field requested: inhibition at 10 µM
(A) 98.3

(Q) Query (compound): `CC(C)(C)C(=O)NCc1cnc(C(F)F)c(-c2nn(-c3ccc(C(F)(F)F)cc3)c(=O)[nH]2)c1` ; field requested: inhibition at 10 µM
(A) 98

(Q) Query (compound): `CC(C)(CF)C(=O)NCc1cnc(C(F)F)c(-c2nn(-c3ccc(C(F)(F)F)cc3)c(=O)[nH]2)c1` ; field requested: inhibition at 10 µM
(A) 99.3

(Q) Query (compound): `Cc1ccc(CNC(=O)C(C)C)c(C)c1-c1nn(-c2ccc(C#CC(C)(C)C)c(F)c2)c(=O)[nH]1` ; field requested: inhibition at 10 µM
(A) 98.9

(Q) Query (compound): `O=C(NCc1ccc(Cl)c(-c2nn(-c3ccc(C(F)(F)F)cc3)c(=O)[nH]2)c1)[C@H]1CCCO1` ; field requested: inhibition at 10 µM
(A) 98.2

(Q) Query (compound): `COc1cc(-n2nc(-c3c(F)cccc3Cl)[nH]c2=O)ccc1C(=O)Nc1nc2ccccc2[nH]1` ; field requested: inhibition at 10 µM
(A) 72.1

====

target: Recombinant human mPGES-1 (Homo sapiens, UniProt O14684); construct: made in house; host or cells: CHO cells (crude microsomal fractions); assay: In-vitro screening of mPGES-1 inhibitors (inhibition of PGE2 formation from PGH2, HTRF detection); assay type: biochemical; conditions: 1 μM test compound; mPGES-1 enzyme, crude microsomal fractions; read-out: Percentage inhibition at 1 μM
Please use condition met whenever inhibition at 1 µM is not below 90%, and condition not met whenever it is.

(Q) Hi, just wondering whether `O=c1[nH]c(-c2c(F)cccc2Cl)nn1-c1ccc(C#Cc2ccc(C(F)(F)F)cn2)cc1` shows inhibition at 1 µM of 90% or higher.
(A) condition not met

(Q) Hi, just wondering whether `COc1cc(-n2nc(-c3cc(S(=O)(=O)NC4CC4)ccc3Cl)[nH]c2=O)ccc1C(=O)Nc1cccc(C(F)(F)F)c1` shows inhibition at 1 µM of 90% or higher.
(A) condition not met

(Q) Hi, just wondering whether `COc1cc(-n2nc(-c3c(Cl)cccc3Cl)[nH]c2=O)ccc1-c1nc2cc(C(F)(F)F)ccc2[nH]1` shows inhibition at 1 µM of 90% or higher.
(A) condition not met

(Q) Hi, just wondering whether `Cc1ccc(CNC(=O)C(C)C)c(C)c1-c1nn(-c2ccc(C#CC(C)(C)C)c(F)c2)c(=O)[nH]1` shows inhibition at 1 µM of 90% or higher.
(A) condition met

(Q) Hi, just wondering whether `CC(C)(C)C(=O)NCc1cnc(C(F)F)c(-c2nn(-c3ccc(C(F)(F)F)cc3)c(=O)[nH]2)c1` shows inhibition at 1 µM of 90% or higher.
(A) condition met

(Q) Hi, just wondering whether `COc1cc(-n2nc(-c3c(F)cccc3Cl)[nH]c2=O)ccc1C(=O)Nc1nnc(C(F)(F)F)s1` shows inhibition at 1 µM of 90% or higher.
(A) condition met

(Q) Hi, just wondering whether `O=C(Nc1cccc(C(F)(F)F)c1)c1ccc(-n2nc(-c3cc(CNC(=O)C4CC4)ccc3Cl)[nH]c2=O)cc1` shows inhibition at 1 µM of 90% or higher.
(A) condition met

(Q) Hi, just wondering whether `O=C(NCc1ccc(Cl)c(-c2nn(-c3ccc(Cl)c(F)c3)c(=O)[nH]2)c1)C(F)(F)F` shows inhibition at 1 µM of 90% or higher.
(A) condition met

(Q) Hi, just wondering whether `COc1cc(-n2nc(-c3c(F)cccc3Cl)[nH]c2=O)ccc1C(=O)NCc1ccccc1C(F)(F)F` shows inhibition at 1 µM of 90% or higher.
(A) condition not met

(Q) Hi, just wondering whether `CC(C)C(=O)NCc1ccc(Cl)c(-c2nn(-c3ccc(C(F)(F)F)cc3)c(=O)[nH]2)c1` shows inhibition at 1 µM of 90% or higher.
(A) condition met

(Q) Hi, just wondering whether `COc1cc(Cl)c(-c2nn(-c3ccc(C(F)(F)F)cc3)c(=O)[nH]2)cc1CNC(=O)C(C)(C)C` shows inhibition at 1 µM of 90% or higher.
(A) condition not met

(Q) Hi, just wondering whether `O=C(NCc1ccc(Cl)c(-n2nc(-c3ccc(C#Cc4ccc(C(F)(F)F)cc4Cl)cc3F)[nH]c2=O)c1)C1CC1` shows inhibition at 1 µM of 90% or higher.
(A) condition met

(Q) Hi, just wondering whether `COc1cc(-n2nc(-c3c(Cl)cccc3C#N)[nH]c2=O)ccc1C(=O)Nc1cccc(C(F)(F)F)c1` shows inhibition at 1 µM of 90% or higher.
(A) condition met
